Assay: pKa determination by titration
Format: physicochemical
Settings: titration in Millipore water containing 150 mM NaCl; for nitrocatechols and mimosine one of the pKa values; read-out: pKa
measurement_name: pKa

Example cases with answers are listed next.
N[C@@H](Cc1ccc(O)c(O)c1)C(=O)O [DOPA]: > 9
NC(Cn1ccc(=O)c(O)c1)C(=O)O (stereo not shown) [mimosine]: ~6.5
NCCc1ccc(O)c(O)c1 [dopamine]: > 9

Here's the next entry for you.
Query block: Dear colleague, I am looking for the recorded pKa of the following compound: NC(Cc1cc(O)c(O)cc1[N+](=O)[O-])C(=O)O (stereo not shown)
Result block: ~6.5
